Taken from patent US11952364B2.

Test: Metabolic stability in liver microsomes
Format: in vitro ADME
Details: pH 7.4; mouse liver microsomes; read-out: T½
readout: half-life at 1 µM (min)

COc1ccc(C(=O)Nc2ccc(Oc3cc4cnn(C)c4cc3-c3cn[nH]c3)c(F)c2)c(=O)n1-c1ccc(F)cc1
39.2
Cc1ccc(C(=O)Nc2ccc(Oc3cc4cnn(C)c4cc3-c3cn[nH]c3)c(F)c2)c(=O)n1-c1ccc(F)cc1 [Merestinib, reference compound]
27.5

====

Assay: Metabolic stability in liver microsomes
Assay type: in vitro ADME
Conditions: pH 7.4; rat liver microsomes
readout: CLint scaled at 1 µM (mL/min/kg)

Cc1ccc(C(=O)Nc2ccc(Oc3cc4cnn(C)c4cc3-c3cn[nH]c3)c(F)c2)c(=O)n1-c1ccc(F)cc1 [Merestinib, reference compound]
105
COc1ccc(C(=O)Nc2ccc(Oc3cc4cnn(C)c4cc3-c3cn[nH]c3)c(F)c2)c(=O)n1-c1ccc(F)cc1
74.4
